Tested on: lace shrub
Assay: Experiment 3 foliar application to naturally growing shrubs; note: key: -: no reproduction, namely complete suppression of reproduction; ±: remarkable suppression of reproduction; +: considerable suppression of reproduction; ++: medium supprestion of reproduction; +++: no suppression of reproduction
Format: in vivo, Stephanandra incisa Zabel
Conditions: 0.1%; after 3 months
Where a name gives a salt, the structure may show the parent alone.
measured.metric: Reproduction-inhibiting

compound	measured.result
CP(=O)(O)CC[C@H](N)C(=O)O [monosodium salt]	-
CP(=O)(O)CCC(N)C(=O)O (racemic) [DL-2-Amino-4-methylphosphinobutanoic acid monodiethanolammon]	++
CP(=O)(O)CC[C@H](N)C(=O)O [L-AMPB choline]	-
CP(=O)(O)CC[C@H](N)C(=O)O [L-2-Amino-4-methylphosphinobutanoic acid monodiethanolammoni]	-
C[C@H](NC(=O)[C@H](C)NC(=O)[C@@H](N)CCP(C)(=O)O)C(=O)O [SF-1293 choline]	-
CP(=O)(O)CCC(N)C(=O)O (racemic) [DL-AMPB choline]	-
C[C@H](NC(=O)[C@H](C)NC(=O)[C@@H](N)CCP(C)(=O)O)C(=O)O [(L-2-Amino-4-methylphosphinobutyryl)-L-alanyl-L-alanine mono]	++
O=C(O)CNCP(=O)(O)O [Glyphosate, N-phosphonomethylglycine]	+++
O=C([O-])C(F)(F)C(F)F.[Na+] [sodium 2,2,3,3-tetrafluoropropionate]	+++

---

Tested on: yamazakura
Assay: Experiment 3 foliar application to naturally growing shrubs; note: key: -: no reproduction, namely complete suppression of reproduction; ±: remarkable suppression of reproduction; +: considerable suppression of reproduction; ++: medium supprestion of reproduction; +++: no suppression of reproduction
Assay type: in vivo, Prunus donarium Sieb. var. spontanae Makino
Conditions: 0.1%; after 3 months
Structures can show the parent of a compound that is named as a salt.
measured.metric: Reproduction-inhibiting

molecule	target.desc	measured.result
CP(=O)(O)CC[C@H](N)C(=O)O [L-AMPB choline]	yamazakura	-
CP(=O)(O)CC[C@H](N)C(=O)O [L-2-Amino-4-methylphosphinobutanoic acid monodiethanolammoni]	yamazakura	-
CP(=O)(O)CCC(N)C(=O)O (racemic) [DL-2-Amino-4-methylphosphinobutanoic acid monodiethanolammon]	yamazakura	++
C[C@H](NC(=O)[C@H](C)NC(=O)[C@@H](N)CCP(C)(=O)O)C(=O)O [SF-1293 choline]	yamazakura	-
O=C([O-])C(F)(F)C(F)F.[Na+] [sodium 2,2,3,3-tetrafluoropropionate]	yamazakura	+++
O=C(O)CNCP(=O)(O)O [Glyphosate, N-phosphonomethylglycine]	yamazakura	+++
CP(=O)(O)CC[C@H](N)C(=O)O [monosodium salt]	yamazakura	-
C[C@H](NC(=O)[C@H](C)NC(=O)[C@@H](N)CCP(C)(=O)O)C(=O)O [(L-2-Amino-4-methylphosphinobutyryl)-L-alanyl-L-alanine mono]	yamazakura	++
CP(=O)(O)CCC(N)C(=O)O (racemic) [DL-AMPB choline]	yamazakura	-

---

Tested on: kiichigo
Assay: Experiment 3 foliar application to naturally growing shrubs; note: key: -: no reproduction, namely complete suppression of reproduction; ±: remarkable suppression of reproduction; +: considerable suppression of reproduction; ++: medium supprestion of reproduction; +++: no suppression of reproduction
Format: in vivo, Rubus palmatsu Thunb. forma coptophyllus Makino
Details: 0.1%; after 3 months
Experimental: The detail of the assessment made in the following Experiments of the invention was as follows: […] 0.1% of octylphenyl polyoxyethanol was added as the surfactant. The killing index (0, no effect; 5, death) after 1 month and 3 months, and the reproduction-inhibiting effect (-, no reproduction; +++, maximum reproduction) after 3 months were determined.
Counter-ions that a name gives are not always drawn.
measured.metric: Reproduction-inhibiting

molecule	measured.result
CP(=O)(O)CC[C@H](N)C(=O)O [L-AMPB choline]	-
CP(=O)(O)CCC(N)C(=O)O (racemic) [DL-AMPB choline]	±
CP(=O)(O)CC[C@H](N)C(=O)O [monosodium salt]	-
CP(=O)(O)CCC(N)C(=O)O (racemic) [DL-2-Amino-4-methylphosphinobutanoic acid monodiethanolammon]	++
C[C@H](NC(=O)[C@H](C)NC(=O)[C@@H](N)CCP(C)(=O)O)C(=O)O [(L-2-Amino-4-methylphosphinobutyryl)-L-alanyl-L-alanine mono]	+
